The reported numbers originate from ChEMBL document CHEMBL3433997.

# target_under_test: Solute carrier family 2, facilitated glucose transporter member 1 (Homo sapiens) (UniProt P11166)
# Sequence (P11166 whole entry): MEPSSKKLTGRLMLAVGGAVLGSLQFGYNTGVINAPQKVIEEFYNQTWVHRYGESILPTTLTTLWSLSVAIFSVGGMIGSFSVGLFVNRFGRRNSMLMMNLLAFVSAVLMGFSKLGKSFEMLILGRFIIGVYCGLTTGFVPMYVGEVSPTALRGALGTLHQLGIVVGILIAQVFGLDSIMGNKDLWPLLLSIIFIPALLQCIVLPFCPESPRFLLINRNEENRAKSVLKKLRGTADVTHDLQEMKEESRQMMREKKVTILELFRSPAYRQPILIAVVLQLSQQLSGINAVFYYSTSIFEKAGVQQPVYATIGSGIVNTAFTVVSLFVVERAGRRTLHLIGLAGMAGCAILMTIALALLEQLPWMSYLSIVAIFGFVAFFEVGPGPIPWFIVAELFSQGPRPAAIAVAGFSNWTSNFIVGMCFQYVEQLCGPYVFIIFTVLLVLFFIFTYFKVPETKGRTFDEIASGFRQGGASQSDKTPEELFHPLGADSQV
# protocol_text: ST_JUDE_LEISH: Cytotoxicity at 2uM final concentration against transgenic Leishmania Mexicana promastigotes LmGLUT1 that are glucose transport deficient and complemented with the human glucose transporter GLUT1. Activity is measured by DNA content using SYBR green in vitro
# Type: functional
property_name: inhibition
Don't forget the unit after the value.

Answer with reported inhibition of N#Cc1ccc(C(=O)Nc2ccc(-c3cccc(CN4CCCC4)c3)cc2)cc1 4.22%

---

# target_under_test: Glucose transporter (Leishmania mexicana) (UniProt O61059)
# protocol_text: ST_JUDE_LEISH: Cytotoxicity at 2uM final concentration against transgenic Leishmania Mexicana promastigotes LmGT2 that are glucose transport deficient and complemented with the L. Mexicana glucose transporter 2. Activity is measured by DNA content using SYBR green in vitro
# Assay type: functional
property_name: inhibition (%)
Numbers only here, please. The scale is %.

In the examples that follow, each entry is paired with its recorded inhibition.
{"compound": "CN(CCc1ccccn1)c1cccc2c1nc(-c1cccnc1)n2CCNCc1ccccc1", "inhibition, %": 11.3}
{"compound": "O=C(Nc1ccc(N2CCN(Cc3ccccc3Cl)CC2)cc1)c1ccc([N+](=O)[O-])o1", "inhibition, %": 11.1}
{"compound": "CCOCCCNc1ncc(-c2ccsc2)c(-c2nc(C)cs2)n1", "inhibition, %": 7.32}

Answer with reported inhibition of COc1cc(Nc2nccc(N3CCC(NS(=O)(=O)c4ccc(NC(C)=O)cc4)CC3)n2)cc(OC)c1OC -0.12

Answer with reported inhibition of O=C(NC(=O)c1ccccc1)NC1CCN(c2ccnc3cc(Cl)ccc23)C1 (stereo not given) 0.92

---

# target_under_test: Hexose transporter 1 (Plasmodium falciparum) (UniProt O97467)
# protocol_text: ST_JUDE_LEISH: Cytotoxicity at 2uM final concentration against transgenic Leishmania Mexicana promastigotes LmPfHT that are glucose transport deficient and complemented with the Plasmodium falciparum hexose transporter. Activity is measured by DNA content using SYBR green in vitro
# Format: functional
# maps each entry to its inhibition
Numbers only here, please. The scale is %.

Answer with reported inhibition of COc1cc(Nc2nccc(N3CCC(NC(=O)c4cccc(NC(C)=O)c4)C3)n2)cc(OC)c1OC (stereo not given) 0.55

Answer with reported inhibition of Cc1cc(N(C)C)nc(Nc2ccc(NC(=O)CCc3ccccc3)cc2)n1 6.42

Answer with reported inhibition of O=[N+]([O-])c1c(O)nc2c(c1O)CCC2 4.36

Answer with reported inhibition of CCN(CC)CCN(Cc1ccc(-c2ccc(C(F)(F)F)cc2)cc1)C(=O)Cn1c(CCc2c(F)ccc(F)c2F)nc(=O)c2ccccc21 1.87

Answer with reported inhibition of CCCN1CCN(Cc2ccc(-c3ccc(-c4nc5ccccc5[nH]4)s3)cc2)CC1 2.1

Answer with reported inhibition of N=c1n(Cc2ccc(Cl)cc2)c2ccccc2n1CC(O)c1ccc(Cl)c(Cl)c1 (stereo not given) 1.87

Answer with reported inhibition of CC(C)CNC(=O)c1ccnc(-c2ccc(CNC3Cc4ccccc4C3)cc2)c1 -0.27

Answer with reported inhibition of CCOC(=O)c1ccc(NC(=O)N[C@@H](Cc2ccccc2)C(=O)NC2CCN(Cc3ccc(O)cc3)C2)cc1 (stereo not given in full) 1.43

Answer with reported inhibition of CN1CCc2ccc(NC(=O)Nc3cccc(C(=O)c4ccccc4)c3)cc2C1 2.01

Answer with reported inhibition of Cc1ccc(NC(=O)Nc2ccc(Cl)cc2)cc1-c1ccc(C(=O)Nc2ccncc2)cc1 1.58
